Origin of measurements: PubChem BioAssay AID1259415

Run description: qHTS Assay for inhibitors of the human cytomegalovirus (HCMV); note: % is set by controls: 0 for no effect and ±100 for the full control effect
Condition description: HFF cells, HCMV-luciferase reporter, 72 h; at 57.5 µM; active compounds read low
About 18,000 (4.4%) of roughly 410,000 compounds were called active. About 7% were inconclusive and are not listed. The list comes from a sample in which actives are over-represented; it also holds close analogues and randomly drawn compounds.
Readout: activity change, negative = inhibition (%)
Respond with the bare value in %.

Known results for compounds:
O=S(=O)(c1ccc(C2CCCCC2)cc1)N1CCN(c2ccc(Cl)c(Cl)c2)CC1
9.35
COc1ccccc1Nc1cc(C(=O)NCCCN(C)C2CCCCC2)c2ccccc2n1
-98.1
CCN(CCCNC(=O)c1cc(Nc2ccc(OC)cc2)nc2ccccc12)c1cccc(C)c1
-61.5
CCc1nnc(SCc2nc(-c3cccc(C)c3)oc2C)c2cc3sc(C)cc3n12
22.7
CC(C)c1ccc(NS(=O)(=O)c2ccc3[nH]cc(C(=O)NC4CCCC4)c(=O)c3c2)cc1
9.04
CCN(CC)CCCNC(=O)c1ccc2c(=O)n(Cc3ccc4c(c3)OCO4)c(=S)[nH]c2c1
69.4
CCCC(=O)Nc1cc2nn(-c3ccccc3)nc2cc1C
123
O=C(COc1ccc(Br)cc1)OCC(=O)c1ccc[nH]1
42.3
CCOC(=O)c1ccc(N2C(=O)c3n[nH]c(-c4ccco4)c3C2c2ccc(O)cc2)cc1 (stereo not given)
-8.9

Field: next compound
The reported value for "CCN(CCCNC(=O)c1cc2cc3cc(OC)ccc3nc2s1)c1ccccc1" in terms of activity change, negative = inhibition is 44.1

###

Run description: qHTS Assay for inhibitors of the human cytomegalovirus (HCMV); note: % is set by controls: 0 for no effect and ±100 for the full control effect
Condition description: HFF cells, HCMV-luciferase reporter, 72 h; at 57.5 µM
The campaign covered roughly 410,000 compounds. About 18,000 (4.4%) were called active. Another 7% or so got no clear call; they are omitted. No stated cut-off is given here; in the data, active means activity change below about -60%; inconclusive means no clear call, values can overlap the other calls; inactive means above about -39%. The sample as a whole holds a higher share of actives than the screen did.
Field 'call' accepts 1 (active), -1 (inactive)

Take a look at these entries with their results.
Cc1ccc(C)c(CNC(=O)c2cc3ccccn3n2)c1
-1
COc1ccccc1CNc1nc(Nc2ccccc2Cl)c2sccc2n1
1
O=C(Cn1nnc(-c2ccccc2)n1)NC(=O)NC1CCCC1
-1
COc1cccc(CNc2nccn(-c3ccc(OC)c(OC)c3)c2=O)c1
-1
Cc1nc(/N=C(\N)NC(=O)NC2CCCCC2)nc2ccccc12
1

query: Status in this test for COc1ccc(CC(=O)N2CC(=O)Nc3ccc(Br)cc3C2c2ccc(F)cc2)cc1OC (stereo unspecified) ?
result: -1

query: Status in this test for O=C(NNC(=O)C(O)c1ccccc1)NC1CCCCC1 (stereo unspecified) ?
result: -1

query: Status in this test for "CC(C)Nc1nc(NCCOc2ccccc2Cl)c2sccc2n1" ?
result: -1

###

Recorded activity change, negative = inhibition, one value per entry.
Run description: qHTS Assay for inhibitors of the human cytomegalovirus (HCMV); note: % is set by controls: 0 for no effect and ±100 for the full control effect
Condition description: HFF cells, HCMV-luciferase reporter, 72 h; at 57.5 µM; active compounds read low
Out of some 410,000 compounds screened, about 18,000 (4.4%) were called active. About 7% were inconclusive and are not listed. Only a selection was taken, and actives are over-represented in it overall.
Respond with the bare value in %.

Known results for compounds:
Cc1cc(NC(=O)Cn2nc(C(F)(F)F)c3c2CCCC3)no1
31
CCOC(=O)N1CCN(C(=O)CSc2nc(C)nc3c2c(=O)n(C)c(=O)n3C)CC1
-22.5
CCc1nc2nc(C)cc(Nc3ccc(F)c(Cl)c3)n2n1
-29.5
C=C1CCN([C@H](C(=O)NCc2cc(OC)c(OC)c(OC)c2)C(C)C)S(=O)(=O)c2ccccc21
9.82

The reported value for "COc1ccc(N(CC(=O)Nc2ccc(F)c(F)c2)S(=O)(=O)c2c(C)[nH]c(=O)[nH]c2=O)cc1" in terms of activity change, negative = inhibition is 0

###

Run description: qHTS Assay for inhibitors of the human cytomegalovirus (HCMV); note: % is set by controls: 0 for no effect and ±100 for the full control effect
Condition description: HFF cells, HCMV-luciferase reporter, 72 h; at 57.5 µM
Screen size: about 410,000 compounds; about 18,000 (4.4%) were called active. Roughly 7% stayed inconclusive and do not appear here. Rule as the data show it: active = activity change below about -60%; inconclusive = no clear call, values can overlap the other calls; inactive = above about -39%. The sample holds actives, similar compounds and a random draw of the others, so the mix is not that of the screen.
Field 'call' accepts y for active, n for inactive

COc1cc2nc(SCC(=O)Nc3ccccc3F)n3nc(-c4ccccc4)nc3c2cc1OC
n
COc1ccccc1NC(=O)C1=C(C)Nc2ncnn2C1c1sccc1C (stereo not given)
n
CC(=O)NCC(=O)N1CCCC(C(=O)c2ccc3c4c(cccc24)CC3)C1 (stereo not given)
n
Cc1cc(C)c2nc(SCC(=O)N(C)C3CCS(=O)(=O)C3)cc(C)c2c1 (stereo not given)
n

query: Status in this test for Cc1ncoc1C(=O)N1CCCC(C(=O)c2ccc3c4c(cccc24)CC3)C1 (stereo not given) ?
result: y

###

Run description: qHTS Assay for inhibitors of the human cytomegalovirus (HCMV); note: % is set by controls: 0 for no effect and ±100 for the full control effect
Condition description: HFF cells, HCMV-luciferase reporter, 72 h; at 57.5 µM
The whole screen tested about 410,000 compounds, of which about 18,000 (4.4%) were called active. Roughly 7% stayed inconclusive and do not appear here. No stated cut-off is given here; in the data, active means activity change below about -60%; inconclusive means no clear call, values can overlap the other calls; inactive means above about -39%. The sample holds actives, similar compounds and a random draw of the others, so the mix is not that of the screen.
Field 'call' accepts TRUE for active, FALSE for inactive

COc1cccc(/C=N/Nc2cc(C)nc(-c3ccccc3O)n2)c1O
TRUE

query: Status in this test for "COc1cc(Cl)c(C)cc1Nc1nnc(-n2nc(C)cc2C)c2ccccc12" ?
result: FALSE

query: Status in this test for "CCC(=O)Nc1ccc(C(=O)CSc2nnc(CNc3ccc(Cl)cc3)o2)cc1OC" ?
result: TRUE

query: Status in this test for "COc1ccccc1NC(=O)CSc1nnc(CNC(=O)c2ccccc2F)o1" ?
result: FALSE

query: Status in this test for COc1ccccc1CNC(=O)c1ccc(CS(=O)c2ccccc2Cl)o1 (stereo unspecified) ?
result: FALSE

###

Run description: qHTS Assay for inhibitors of the human cytomegalovirus (HCMV); note: % is set by controls: 0 for no effect and ±100 for the full control effect
Condition description: HFF cells, HCMV-luciferase reporter, 72 h; at 57.5 µM; active compounds read low
Hit rate of the full screen: of about 410,000 compounds, about 18,000 (4.4%) were called active. Not shown: some 7% with an inconclusive outcome. Only a selection was taken, and actives are over-represented in it overall.
Recorded activity change, negative = inhibition, one value per entry.
Respond with the bare value in %.

O=C1CCC[C@H]2[C@@H](Cc3ccccc3)[C@@H](NS(=O)(=O)c3ccc([N+](=O)[O-])cc3[N+](=O)[O-])CC[C@]23CCCN13
-34.8

The reported value for "CCc1ccc(CNC(=O)c2cc3cc4ccc(OC)cc4nc3o2)cc1" in terms of activity change, negative = inhibition is -26.2

###

Run description: qHTS Assay for inhibitors of the human cytomegalovirus (HCMV); note: % is set by controls: 0 for no effect and ±100 for the full control effect
Condition description: HFF cells, HCMV-luciferase reporter, 72 h; at 57.5 µM; active compounds read low
The whole screen tested about 410,000 compounds, of which about 18,000 (4.4%) were called active. Inconclusive results (about 7%) are left out. The full list was thinned out, with actives kept by preference.
Readout: activity change, negative = inhibition (%)
Respond with the bare value in %.

Known results for molecules:
O=C(CSc1ncc(S(=O)(=O)c2ccc(Br)cc2)c(=O)[nH]1)Nc1ccc2c(c1)OCCO2
3.97
COc1ccc(N2CCN(C(=O)C3CCCN(C(=O)c4cc5sccc5n4C)C3)CC2)cc1 (configuration not stated)
-14.9
CSc1ccc(CCNC(=O)C2CCN(c3nnc(-n4cccc4)s3)CC2)cc1
-19.1

The reported value for "Cc1[nH]n(-c2cccc(Cl)c2)c(=O)c1-c1ccc(Cl)cc1" in terms of activity change, negative = inhibition is -66.9

The reported value for "C[C@@H]1Cn2cnc(C(=O)Nc3ccc(CNC(=O)OC(C)(C)C)cc3)c2C(=O)N1" in terms of activity change, negative = inhibition is -101

The reported value for "CCCCSc1ncnc2c1sc1nc(N3CCOCC3)c3c(c12)CCCC3" in terms of activity change, negative = inhibition is 1.23

The reported value for "COc1ccc(-c2cc(-c3ccc(F)cc3)nc3c2COc2ccccc2-3)cc1" in terms of activity change, negative = inhibition is -6.64

The reported value for "Cc1cccc(NC(=O)CSc2nc(-c3ccco3)cc(C(F)(F)F)n2)c1C" in terms of activity change, negative = inhibition is 1.83

The reported value for "CCc1ccccc1NC(=O)CN(C)C(=O)c1cc(C2CC2)nn1-c1ccccc1" in terms of activity change, negative = inhibition is -18

The reported value for "O=C(NC(=S)N1CCN(Cc2ccccc2)CC1)c1ccccc1" in terms of activity change, negative = inhibition is -3.08

The reported value for "NC(=O)c1ccc(N2CCCC2)nc1" in terms of activity change, negative = inhibition is 9.29

The reported value for C#Cc1ccc(NC(=O)C2(C)CCN2C(=O)Cc2ccc(-c3ccccc3)cc2)cc1 (configuration not stated) in terms of activity change, negative = inhibition is -83.5

The reported value for "COc1ccccc1-c1nnc(C2CCN(C(=O)c3ccc(Cl)cc3)CC2)o1" in terms of activity change, negative = inhibition is -8.12

The reported value for COc1ccc(-c2csc(NC3OC(=O)c4ccccc43)n2)cc1 (configuration not stated) in terms of activity change, negative = inhibition is -107

The reported value for CC(C)c1ccc(-c2noc(C3CCCN(S(C)(=O)=O)C3)n2)cc1 (configuration not stated) in terms of activity change, negative = inhibition is -15.2

The reported value for "CCOCCCNC(=O)c1c(NC(=O)c2nc(SC)ncc2Cl)sc2c1CCCC2" in terms of activity change, negative = inhibition is 47.5

The reported value for C#CCOc1ccc(C2CC(=O)Nc3c2c(C)nn3-c2nc(C)cc(C)n2)cc1 (configuration not stated) in terms of activity change, negative = inhibition is -10.8
